Target: Na(+)/dicarboxylate cotransporter 3 (Homo sapiens, UniProt Q8WWT9)
Sequence (Q8WWT9 whole entry): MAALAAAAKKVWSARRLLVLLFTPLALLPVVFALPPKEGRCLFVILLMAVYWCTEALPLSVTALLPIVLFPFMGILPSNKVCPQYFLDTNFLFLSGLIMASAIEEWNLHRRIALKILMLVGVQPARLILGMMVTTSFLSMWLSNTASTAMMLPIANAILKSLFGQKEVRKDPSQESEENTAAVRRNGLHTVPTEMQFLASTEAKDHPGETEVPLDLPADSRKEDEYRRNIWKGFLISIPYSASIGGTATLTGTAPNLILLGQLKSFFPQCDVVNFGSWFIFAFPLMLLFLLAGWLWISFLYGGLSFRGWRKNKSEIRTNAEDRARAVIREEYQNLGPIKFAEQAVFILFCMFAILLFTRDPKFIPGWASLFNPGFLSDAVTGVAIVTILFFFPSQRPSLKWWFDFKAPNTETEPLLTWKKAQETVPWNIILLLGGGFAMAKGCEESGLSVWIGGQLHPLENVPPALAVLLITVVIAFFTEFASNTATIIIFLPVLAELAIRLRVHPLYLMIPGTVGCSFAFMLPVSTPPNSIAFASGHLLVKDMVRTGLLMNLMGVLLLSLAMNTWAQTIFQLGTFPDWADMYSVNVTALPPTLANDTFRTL
Test: Substrate uptake by the Na(+)/Dicarboxylate Cotransporter 3 (NADC3, SLC13A3) as assessed by the fluorescent FLIPR membrane potential dye in HEK-293 JumpIN-SLC13A3 cells (PubChem AID: 1794820)
measured parameter: pEC50
Scale: pEC50 equals -log10([C]), with [C] in mol/L.

**Q:** Complete the entry with pEC50 for O=C(O)CCC(=O)O
**A:** 3.97

**Q:** Complete the entry with pEC50 for O=C(O)CCC(=O)C(=O)O
**A:** 4.27

Attribution: ChEMBL document CHEMBL5209571
